- targetOfAssay: T1, Claudin 18.2 (CLDN18.2), expressed on CHOS-CLDN 18.2 / HEK293-CLDN 18.2 / HCC827-CLDN 18.2 cells (human, UniProt P56856-2 1-261)
- T1 construct: whole, on cells; The species is not repeated for the CHOS-CLDN 18.2 cells; also called claudin-18A2
- protocolSummary: FACS, CHOS-CLDN18.2 cells, 0.020 µg/ml
observable: FACS reading
Reply with the value as a number alone.

[
  {
    "binder": "QP14631461 (antibody, human IgG1, kappa, V domains shown, also called QP14611463) VH: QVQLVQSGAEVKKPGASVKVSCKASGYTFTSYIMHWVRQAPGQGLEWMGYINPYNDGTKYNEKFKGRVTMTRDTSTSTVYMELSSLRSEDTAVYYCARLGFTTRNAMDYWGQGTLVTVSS VL: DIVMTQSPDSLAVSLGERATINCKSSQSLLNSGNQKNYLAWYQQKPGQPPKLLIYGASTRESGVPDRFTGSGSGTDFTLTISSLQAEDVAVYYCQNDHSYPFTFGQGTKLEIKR",
    "FACS reading": 19300
  }
]

Sample QP024025 (antibody, human IgG1, V domains shown, also called IMAB362; 175D10(IMAB362)) VH: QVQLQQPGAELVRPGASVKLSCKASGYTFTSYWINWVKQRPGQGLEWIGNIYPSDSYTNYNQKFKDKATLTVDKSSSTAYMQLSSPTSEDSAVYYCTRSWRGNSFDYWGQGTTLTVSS VL: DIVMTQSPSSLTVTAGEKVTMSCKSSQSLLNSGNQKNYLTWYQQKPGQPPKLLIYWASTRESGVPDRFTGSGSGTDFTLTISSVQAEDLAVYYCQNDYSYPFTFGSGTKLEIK — what was its FACS reading?
6950
